molecular target: TJP1_3, Q07157; assay: holdup assay; set-up: key: below the threshold = too weak to quantify, mostly under pKd 3.1 to 4; details: plain residues with an end cap or a label only (N-terminal biotin on a linker: ado-ado)
Sequence (Q07157 416-512): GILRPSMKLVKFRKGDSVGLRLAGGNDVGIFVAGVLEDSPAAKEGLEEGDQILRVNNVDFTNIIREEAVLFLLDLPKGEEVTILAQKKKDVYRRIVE
Measured pKd values are reported for all entries that follow.
OBSERVED_PROPERTY: pKd

1. PLPPEEESWV [GAS2L2, Q8NHY3] = 3.63
2. QLKSGRDSTV [TMEM178A, Q8NBL3] = 3.5
